- study_system: Cannabinoid receptor 1 (Homo sapiens, UniProt P21554)
- Sequence (P21554 whole entry): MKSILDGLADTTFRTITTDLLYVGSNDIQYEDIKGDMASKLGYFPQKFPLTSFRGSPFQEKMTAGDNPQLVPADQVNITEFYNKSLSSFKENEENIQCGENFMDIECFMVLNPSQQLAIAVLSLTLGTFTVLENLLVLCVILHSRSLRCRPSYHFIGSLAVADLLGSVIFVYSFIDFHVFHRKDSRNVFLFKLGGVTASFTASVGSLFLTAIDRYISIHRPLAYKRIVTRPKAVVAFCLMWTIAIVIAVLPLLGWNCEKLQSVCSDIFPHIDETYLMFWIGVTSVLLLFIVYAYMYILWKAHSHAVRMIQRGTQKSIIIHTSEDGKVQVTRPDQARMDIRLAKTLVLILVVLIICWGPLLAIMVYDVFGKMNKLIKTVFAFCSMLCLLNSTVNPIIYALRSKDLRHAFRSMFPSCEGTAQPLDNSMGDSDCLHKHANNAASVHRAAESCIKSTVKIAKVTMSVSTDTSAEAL
- measurement_protocol: Compound was evaluated for binding affinity against human cannabinoid receptor by using radioligand ([3H]CP-55940) assay; second determination
measurement_label: Ki

For CCCCCCC(C)(C)c1cc2c(c(OP(=O)(OCC)OCC)c1)[C@@H]1CC(C)=CC[C@H]1C(C)(C)O2 the compound record lists Ki as > 20 µM

----------
Please go through the items and note down their Ki.
Respond with the bare value in nM.

Observed Ki on Cannabinoid receptor 2 (Homo sapiens, UniProt P34972), entry C=C1CC[C@@H]2[C@@H](C1)c1c(O)cc(C(C)(C)CCCCCC)cc1OC2(C)C , equals 0.58

Observed Ki on Cannabinoid receptor 2 (Homo sapiens, UniProt P34972), entry CCCCCCC(C)(C)c1cc(O)c2c(c1)OC(C)(C)[C@@H]1CCC(=O)C[C@@H]21 , equals 1.84

Observed Ki on Cannabinoid receptor 2 (Homo sapiens, UniProt P34972), entry CCCCCCC(C)(C)c1cc(O)c2c(c1)OC(C)(C)[C@H]1CC=C(C=O)C[C@H]21 , equals 119

Observed Ki on Cannabinoid receptor 2 (Homo sapiens, UniProt P34972), entry CCCCCCC(C)(C)c1cc2c(c(OP(=O)(OCC)OCC)c1)[C@@H]1CC(C)=CC[C@H]1C(C)(C)O2 , equals 442

Observed Ki on Cannabinoid receptor 2 (Homo sapiens, UniProt P34972), entry CCCCCCC(C)(C)c1cc(O)c2c(c1)OC(C)(C)[C@@H]1CC=C(C)C[C@@H]21 , equals 0.49

Observed Ki on Cannabinoid receptor 2 (Homo sapiens, UniProt P34972), entry CCCCCCC(C)(C)c1cc(OC)c2c(c1)OC(C)(C)[C@@H]1CCC(=O)C[C@@H]21 , equals 132

Observed Ki on Cannabinoid receptor 2 (Homo sapiens, UniProt P34972), entry CCCCCCC(C)(C)c1cc(OC)c2c(c1)OC(C)(C)[C@@H]1CC=C(C)C[C@@H]21 , equals 20

Observed Ki on Cannabinoid receptor 2 (Homo sapiens, UniProt P34972), entry CCCCCCC(C)(C)c1cc(O)c(-c2cc(C)cc(C)c2)c(O)c1 , equals 2

Observed Ki on Cannabinoid receptor 2 (Homo sapiens, UniProt P34972), entry CCCCCCC(C)(C)c1ccc(-c2cc(C)cc(C)c2)c(O)c1 , equals 4.14

Observed Ki on Cannabinoid receptor 2 (Homo sapiens, UniProt P34972), entry C=C1CC[C@@H]2[C@@H](C1)c1c(OC)cc(C(C)(C)CCCCCC)cc1OC2(C)C , equals 19.4

Observed Ki on Cannabinoid receptor 2 (Homo sapiens, UniProt P34972), entry CCCCCCC(C)(C)c1cc(OC)c(-c2cc(C)cc(C)c2)c(OC)c1 , equals 433

Observed Ki on Cannabinoid receptor 2 (Homo sapiens, UniProt P34972), entry CCCCCCC(C)(C)c1ccc(-c2cc(C)cc(C)c2)cc1 , equals 2140

Observed Ki on Cannabinoid receptor 2 (Homo sapiens, UniProt P34972), entry CCCCCCC(C)(C)c1cc(O)c2c(c1)OC(C)(C)[C@@H]1CC=C(C=O)C[C@@H]21 , equals 2.61

Observed Ki on Cannabinoid receptor 2 (Homo sapiens, UniProt P34972), entry CCCCCCC(C)(C)c1cc(O)c2c(c1)OC(C)(C)[C@H]1CC=C(C)C[C@H]21 , equals 28.8

Observed Ki on Cannabinoid receptor 2 (Homo sapiens, UniProt P34972), entry CCCCCCC(C)(C)c1ccc2c(c1)OC(C)(C)[C@@H]1CC=C(C)C[C@@H]21 , equals 20.8

Observed Ki on Cannabinoid receptor 2 (Homo sapiens, UniProt P34972), entry CCCCCCC(C)(C)c1cc(O)c([C@@H]2C=C(C)C3C[C@H]2C3(C)C)c(O)c1 , equals 41.2

----------
- study_system: Cannabinoid receptor (Homo sapiens) (UniProt P34972+P21554)
- Sequence (P21554 whole entry, looked up): as the sequence (P21554 whole entry) above
- Sequence (P34972 whole entry, looked up): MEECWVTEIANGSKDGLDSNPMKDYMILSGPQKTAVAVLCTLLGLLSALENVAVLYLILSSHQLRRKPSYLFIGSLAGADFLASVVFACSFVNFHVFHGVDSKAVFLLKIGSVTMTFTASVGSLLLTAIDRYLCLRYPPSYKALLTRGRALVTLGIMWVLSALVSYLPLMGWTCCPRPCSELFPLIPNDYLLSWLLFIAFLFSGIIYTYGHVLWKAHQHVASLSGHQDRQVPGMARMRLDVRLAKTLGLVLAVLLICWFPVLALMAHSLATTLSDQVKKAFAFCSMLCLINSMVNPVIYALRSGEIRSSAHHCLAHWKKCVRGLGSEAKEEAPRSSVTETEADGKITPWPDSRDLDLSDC
- measurement_protocol: Ratio of binding affinity of hCB1 to hCB2 was reported
- Format: protein assay
Label satisfied for high-side Ratio (at or above 3) and not satisfied for low-side Ratio (below it).

Answer whether Ratio of CCCCCCC(C)(C)c1cc(O)c([C@@H]2C=C(C)C3C[C@H]2C3(C)C)c(O)c1 is greater than or equal to 3.
satisfied

Answer whether Ratio of CCCCCCC(C)(C)c1cc(OC)c2c(c1)OC(C)(C)[C@@H]1CCC(=O)C[C@@H]21 is greater than or equal to 3.
satisfied

Answer whether Ratio of CCCCCCC(C)(C)c1ccc2c(c1)OC(C)(C)[C@@H]1CC=C(C)C[C@@H]21 is greater than or equal to 3.
satisfied

Answer whether Ratio of CCCCCCC(C)(C)c1cc(O)c2c(c1)OC(C)(C)[C@@H]1CCC(=O)C[C@@H]21 is greater than or equal to 3.
not satisfied

Answer whether Ratio of CCCCCCC(C)(C)c1ccc(-c2cc(C)cc(C)c2)cc1 is greater than or equal to 3.
satisfied

Answer whether Ratio of CCCCCCC(C)(C)c1cc2c(c(OP(=O)(OCC)OCC)c1)[C@@H]1CC(C)=CC[C@H]1C(C)(C)O2 is greater than or equal to 3.
satisfied

Answer whether Ratio of CCCCCCC(C)(C)c1cc(OC)c(-c2cc(C)cc(C)c2)c(OC)c1 is greater than or equal to 3.
satisfied

Answer whether Ratio of CCCCCCC(C)(C)c1cc(O)c2c(c1)OC(C)(C)[C@@H]1CC=C(C=O)C[C@@H]21 is greater than or equal to 3.
not satisfied

Answer whether Ratio of CCCCCCC(C)(C)c1cc(O)c(-c2cc(C)cc(C)c2)c(O)c1 is greater than or equal to 3.
satisfied

Answer whether Ratio of C=C1CC[C@@H]2[C@@H](C1)c1c(O)cc(C(C)(C)CCCCCC)cc1OC2(C)C is greater than or equal to 3.
satisfied

Answer whether Ratio of CCCCCCC(C)(C)c1cc(O)c2c(c1)OC(C)(C)[C@@H]1CC=C(C)C[C@@H]21 is greater than or equal to 3.
not satisfied

Answer whether Ratio of C=C1CC[C@@H]2[C@@H](C1)c1c(OC)cc(C(C)(C)CCCCCC)cc1OC2(C)C is greater than or equal to 3.
satisfied

Answer whether Ratio of CCCCCCC(C)(C)c1cc(O)c2c(c1)OC(C)(C)[C@H]1CC=C(C=O)C[C@H]21 is greater than or equal to 3.
not satisfied

Answer whether Ratio of CCCCCCC(C)(C)c1cc(OC)c2c(c1)OC(C)(C)[C@@H]1CC=C(C)C[C@@H]21 is greater than or equal to 3.
satisfied

Answer whether Ratio of CCCCCCC(C)(C)c1cc(O)c2c(c1)OC(C)(C)[C@H]1CC=C(C)C[C@H]21 is greater than or equal to 3.
not satisfied

----------
- study_system: Cannabinoid receptor 1 (Homo sapiens, UniProt P21554)
- measurement_protocol: Binding affinity against human cannabinoid receptor by using radioligand ([3H]CP-55940) assay.
measurement_label: pKi
As a rule, pKi stands for the negative log10 of the concentration, concentration in M.

For CCCCCCC(C)(C)c1cc(OC)c2c(c1)OC(C)(C)[C@@H]1CC=C(C)C[C@@H]21 the molecule record lists pKi as 4.80

For CCCCCCC(C)(C)c1cc(O)c2c(c1)OC(C)(C)[C@@H]1CC=C(C)C[C@@H]21 the molecule record lists pKi as 9.08

For CCCCCCC(C)(C)c1cc(O)c2c(c1)OC(C)(C)[C@H]1CC=C(C)C[C@H]21 the molecule record lists pKi as 7.41

For CCCCCCC(C)(C)c1cc(O)c2c(c1)OC(C)(C)[C@@H]1CCC(=O)C[C@@H]21 the molecule record lists pKi as 8.66

For CCCCCCC(C)(C)c1cc(OC)c2c(c1)OC(C)(C)[C@@H]1CCC(=O)C[C@@H]21 the molecule record lists pKi as 6.21
